B1: ZNF207 (parent)
chain: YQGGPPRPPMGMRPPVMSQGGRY

variants of: B1; assay: protein stability index of a GFP-peptide fusion (GPS, HEK-293T) (PSI 1-6); higher = more stable; settings: c terminus: native;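 also: lentivirally expressed fusions sorted by FACS into six bins by GFP to DsRed ratio, PSI derived from sequencing read proportions per bin multiplied by bin number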
Note to self: class labels come from recorded protein stability index, ranges listed here: low group: < 2; middle group: ≥ 2 and < 3; high group: ≥ 3

Class for R13I ?
middle group

Classify this variant: G21Q
middle group

Band of G4H ?
middle group

# classify by protein stability index band: Q2D
middle group

Classify this variant: R22F
low group

Which category does the recorded protein stability index put G4Q in?
high group

Bin this entry: M10I
high group

Where would Y23M land among the classes by reported protein stability index?
middle group

Band for P15S ?
middle group

Given G11S , name the class its protein stability index places it in.
low group

Band for the recorded protein stability index of R7M ?
low group

Band assignment needed for P15F please.
low group

From: the supplement of paper PMC10567573
